Measured values drawn from paper PMC10348020 for this set.

Let's go through some recorded Ki values for hCA I (Homo sapiens, UniProt P00915) together.
observed.property: Ki

>>> df
                            molecule_smiles   result
0  O=C1c2ccccc2C(=O)N1c1ccc(S(=O)(=O)Nc2ccc(Cl)cc2)cc1   7.5 µM
1  O=C1c2ccccc2C(=O)N1c1ccc(S(=O)(=O)Nc2ccccc2Cl)cc1  > 10 µM
2  O=C1c2ccccc2C(=O)N1c1ccc(S(=O)(=O)Nc2cccc([N+](=O)[O-])c2)cc1  > 10 µM
3  O=C1c2ccccc2C(=O)N1c1ccc(S(=O)(=O)Nc2cccc(Cl)c2)cc1  > 10 µM
4  O=C1c2ccccc2C(=O)N1c1ccc(S(=O)(=O)Nc2ccccc2)cc1  > 10 µM
5  CCN(CC)S(=O)(=O)c1ccc(N2C(=O)c3ccccc3C2=O)cc1  > 10 µM

====

pKi: −log10 of the molar value.
Observed pKi for hCA I (Homo sapiens), reported per entry below.
observed.property: pKi

In [3]: df
Out[3]:
                            molecule_smiles  result
0  CCc1ccc(NS(=O)(=O)c2ccc(N3C(=O)c4ccccc4C3=O)cc2)cc1  < 5.00
1  O=C1c2ccccc2C(=O)N1c1ccc(S(=O)(=O)NCCc2ccccc2)cc1    5.13
2  COc1ccc(NS(=O)(=O)c2ccc(N3C(=O)c4ccccc4C3=O)cc2)cc1  < 5.00
3  CN(C)S(=O)(=O)c1ccc(N2C(=O)c3ccccc3C2=O)cc1  < 5.00
4  Cc1ccc(NS(=O)(=O)c2ccc(N3C(=O)c4ccccc4C3=O)cc2)cc1  < 5.00
5  O=C1c2ccccc2C(=O)N1c1ccc(S(=O)(=O)Nc2ccccc2O)cc1    5.26
6  O=C1c2ccccc2C(=O)N1c1ccc(S(=O)(=O)N2CCCCC2)cc1  < 5.00
7  Cc1ccccc1NS(=O)(=O)c1ccc(N2C(=O)c3ccccc3C2=O)cc1  < 5.00
8  COc1cccc(NS(=O)(=O)c2ccc(N3C(=O)c4ccccc4C3=O)cc2)c1  < 5.00

====

The following are reported Ki results, target or system UniProt:P00918.
observed.property: Ki

>>> df
                                    compound   result
 0  O=C1c2ccccc2C(=O)N1c1ccc(S(=O)(=O)N2CCCCC2)cc1 [Compound 7]  > 10 µM
 1  CCc1ccc(NS(=O)(=O)c2ccc(N3C(=O)c4ccccc4C3=O)cc2)cc1 [Compound 19]  > 10 µM
 2  COc1ccc(NS(=O)(=O)c2ccc(N3C(=O)c4ccccc4C3=O)cc2)cc1 [Compound 12]  > 10 µM
 3  O=C(O)c1ccc(NS(=O)(=O)c2ccc(N3C(=O)c4ccccc4C3=O)cc2)cc1 [Compound 22]  > 10 µM
 4  O=C1c2ccccc2C(=O)N1c1ccc(S(=O)(=O)Nc2ccc(Cl)cc2)cc1 [Compound 15]  > 10 µM
 5  CN1CCN(S(=O)(=O)c2ccc(N3C(=O)c4ccccc4C3=O)cc2)CC1 [Compound 8]  > 10 µM
 6  O=C1c2ccccc2C(=O)N1c1ccc(S(=O)(=O)Nc2ccccc2O)cc1 [Compound 10]  8.87 µM
 7  CCN(CC)S(=O)(=O)c1ccc(N2C(=O)c3ccccc3C2=O)cc1 [Compound 5]  > 10 µM
 8  Cc1ccc(NS(=O)(=O)c2ccc(N3C(=O)c4ccccc4C3=O)cc2)cc1 [Compound 18]  > 10 µM
 9  O=C1c2ccccc2C(=O)N1c1ccc(S(=O)(=O)Nc2ccc([N+](=O)[O-])cc2)cc1 [Compound 21]  > 10 µM
10  CN(C)S(=O)(=O)c1ccc(N2C(=O)c3ccccc3C2=O)cc1 [Compound 4]  9.06 µM
11  Cc1ccccc1NS(=O)(=O)c1ccc(N2C(=O)c3ccccc3C2=O)cc1 [Compound 16]  > 10 µM
12  O=C1c2ccccc2C(=O)N1c1ccc(S(=O)(=O)N(c2ccccc2)c2ccccc2)cc1 [Compound 6]  > 10 µM
